System: U87MG (brain)
TEST_METHOD_NOTES: Proliferation Assay
Assay type: cell-based
SETTINGS: Homo sapiens, U-87 MG, 72 h, read-out: IC50 inhibition of cell growth
MEASURED_ENDPOINT: IC50

Which measured IC50 value corresponds to COc1cccc(C(=O)Nc2nc3cc4c(cc3[nH]2)OC(F)(F)O4)c1 ?
≤ 1000 nM

###

This listing pairs compounds with measured pIC50.
TARGET_OR_TEST_SYSTEM: Casein kinase 1 epsilon (CSKN1E) (Homo sapiens)
Sequence (P49674 whole entry): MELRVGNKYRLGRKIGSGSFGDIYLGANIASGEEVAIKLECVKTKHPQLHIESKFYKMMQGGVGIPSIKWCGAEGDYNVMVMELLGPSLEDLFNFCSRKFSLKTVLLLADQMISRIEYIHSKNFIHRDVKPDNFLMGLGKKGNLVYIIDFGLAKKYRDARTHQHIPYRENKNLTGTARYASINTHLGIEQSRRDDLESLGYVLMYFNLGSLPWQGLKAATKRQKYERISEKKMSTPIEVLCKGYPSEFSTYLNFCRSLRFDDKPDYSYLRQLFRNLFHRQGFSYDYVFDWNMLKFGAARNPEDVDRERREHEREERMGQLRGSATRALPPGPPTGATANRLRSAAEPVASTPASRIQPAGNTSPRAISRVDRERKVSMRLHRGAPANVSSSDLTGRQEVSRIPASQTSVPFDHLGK
TEST_METHOD_NOTES: Casein kinase assay, CK1 epsilon
SETTINGS: recombinant CSKN1E 30 nM, ATP 10 μM
Description: The recombinant protein Casein kinase 1 delta (CSKN1D) was added to the substrate solution in a concentration of 5 nM and gently mixed. Dilution series in of compounds of the present invention in DMSO were added to the reaction mixture, followed after 20 min by addition of a mixture of ATP and ^33P-ATP (specific activity 0.01 μCi/μl final) to a final concentration of 10 μM. Reactions were carried out at 25° C. for 120 min, followed by spotting the reactions onto P81 ion exchange filter paper. […]
pIC50: −log10 of the molar value.

Which measured pIC50 value corresponds to O=C(Nc1nc2cc3c(cc2[nH]1)OC(F)(F)O3)c1csc(-c2cscn2)n1 ?
> 6.70

Which measured pIC50 value corresponds to O=C(Nc1nc2cc3c(cc2[nH]1)OC(F)(F)O3)c1csc(Br)c1 ?
> 6.70

Which measured pIC50 value corresponds to O=C(Nc1nc2cc3c(cc2[nH]1)OC(F)(F)O3)c1nnn(-c2cccc(F)c2)c1C(F)(F)F ?
< 6.00

###

System: NCIH82 (lung)
TEST_METHOD_NOTES: Proliferation Assay
Format: cell-based
SETTINGS: Homo sapiens, NCI-H82, 72 h, read-out: IC50 inhibition of cell growth
pIC50: −log10 of the molar value.
MEASURED_ENDPOINT: pIC50

Which measured pIC50 value corresponds to COc1cccc(C(=O)Nc2nc3cc4c(cc3[nH]2)OC(F)(F)O4)c1 ?
≥ 6.00

###

TARGET_OR_TEST_SYSTEM: UniProt P49674
TEST_METHOD_NOTES: Casein kinase assay, CK1 epsilon
SETTINGS: recombinant CSKN1E 30 nM, ATP 10 μM
MEASURED_ENDPOINT: IC50

COc1ccc(C(=O)Nc2nc(C(=O)Nc3nc4cc5c(cc4[nH]3)OC(F)(F)O5)cs2)cc1 [Compound 69] : 200 to 1000 nM

Which measured IC50 value corresponds to O=C(Nc1nc2cc3c(cc2[nH]1)OC(F)(F)O3)c1csc(C2CCN(c3ncnc4ccsc34)CC2)n1 [Compound 97] ?
200 to 1000 nM

Which measured IC50 value corresponds to O=C(Nc1nc2cc3c(cc2[nH]1)OC(F)(F)O3)c1ccccc1 [Compound 49] ?
< 200 nM

Which measured IC50 value corresponds to Cc1cc(C)n(-c2cccc(C(=O)Nc3nc4cc5c(cc4[nH]3)OC(F)(F)O5)c2)n1 [Compound 130] ?
< 200 nM

Which measured IC50 value corresponds to O=C(Nc1nc2cc3c(cc2[nH]1)OC(F)(F)O3)c1ccc(Cl)cc1Cl [Compound 43] ?
200 to 1000 nM

Which measured IC50 value corresponds to O=C(Nc1nc2cc3c(cc2[nH]1)OC(F)(F)O3)c1coc(NC(=O)c2ccco2)n1 [Compound 10] ?
> 1000 nM

Which measured IC50 value corresponds to O=C(Nc1nc2cc3c(cc2[nH]1)OC(F)(F)O3)c1csc(Br)n1 [Compound 55] ?
200 to 1000 nM

Which measured IC50 value corresponds to Cc1nn(C)cc1-c1cc(C(=O)Nc2nc3cc4c(cc3[nH]2)OC(F)(F)O4)no1 [Compound 144] ?
> 1000 nM

Which measured IC50 value corresponds to O=C(Nc1nc2cc3c(cc2[nH]1)OC(F)(F)O3)c1cn(-c2ccccc2)nc1C(F)(F)F [Compound 16] ?
200 to 1000 nM

Which measured IC50 value corresponds to O=C(Nc1nc2cc3c(cc2[nH]1)OC(F)(F)O3)c1csc(-c2cccc(Cl)c2Cl)n1 [Compound 6] ?
> 1000 nM

Which measured IC50 value corresponds to CS(=O)(=O)c1ccc(C(=O)Nc2nc3cc4c(cc3[nH]2)OC(F)(F)O4)s1 [Compound 85] ?
200 to 1000 nM

Which measured IC50 value corresponds to Cc1nc(-c2cccc(C(=O)Nc3nc4cc5c(cc4[nH]3)OC(F)(F)O5)c2)no1 [Compound 137] ?
< 200 nM

Which measured IC50 value corresponds to COc1cccc(CC(=O)Nc2nc3cc4c(cc3[nH]2)OC(F)(F)O4)c1 [Compound 3B] ?
< 200 nM

Which measured IC50 value corresponds to O=C(Nc1nc2cc3c(cc2[nH]1)OC(F)(F)O3)c1ccc(S(=O)(=O)N2CCOCC2)cc1 [Compound 117] ?
< 200 nM

Which measured IC50 value corresponds to Nc1cccc(C(=O)Nc2nc3cc4c(cc3[nH]2)OC(F)(F)O4)c1 [Compound 87] ?
200 to 1000 nM

Which measured IC50 value corresponds to NC(=O)c1ccc(C(=O)Nc2nc3cc4c(cc3[nH]2)OC(F)(F)O4)cc1 [Compound 111] ?
< 200 nM
